test system: T47D cells; assay: Live-cell imaging growth studies and EC50 for growth inhibition, T47D; type: cell-based; conditions: Homo sapiens, read-out: Approximate Half-maximal Effective Concentration (EC50) for growth inhibition
property.label: pEC50
To interpret pEC50, take it as minus log10 of a concentration measured in moles per litre.

Exercise: Requested read-out: pEC50. Entry: Cc1nc(NC(=O)N2CCC[C@H]2C(N)=O)sc1-c1ccnc(C(C)(C)C(F)(F)F)c1 [Alpelisib, reference compound]
Solution: 7.00

Exercise: Requested read-out: pEC50. Entry: CO[C@H]1C[C@@H]2CC[C@@H](C)[C@@](O)(O2)C(=O)C(=O)N2CCCC[C@H]2C(=O)O[C@H]([C@H](C)C[C@@H]2CC[C@@H](OCCO)[C@H](OC)C2)CC(=O)[C@H](C)/C=C(\C)[C@@H](O)[C@@H](OC)C(=O)[C@H](C)C[C@H](C)/C=C/C=C/C=C/1C [Everolimus, reference compound]
Solution: 7.00

Exercise: Requested read-out: pEC50. Entry: C[C@H](Nc1ccc2c(c1)OCCn1cc(N3C(=O)OC[C@H]3C(F)F)nc1-2)C(N)=O [GDC-0077]
Solution: 7.52

Exercise: Requested read-out: pEC50. Entry: O=C1CC[C@H](N2Cc3cc(N4CCN(CC5CCN(c6ccc([C@@H]7c8ccc(O)cc8CC[C@@H]7c7ccccc7)cc6)CC5)CC4)ccc3C2=O)C(=O)N1 [Compound (I-c)]
Solution: 8.00

----------
test: Phase I clinical trial pharmacokinetics; settings: human, in vivo, po, 30 mg, 30 mg oral once daily, Phase I; read-out: Mean Day 15 Cmax
property.label: Cmax (ng/mL)
Give just the number in ng/mL; leave the unit off.

Exercise: Requested read-out: Cmax. Entry: `O=C1CC[C@H](N2Cc3cc(N4CCN(CC5CCN(c6ccc([C@@H]7c8ccc(O)cc8CC[C@@H]7c7ccccc7)cc6)CC5)CC4)ccc3C2=O)C(=O)N1`
Solution: 224

----------
test: Phase I clinical trial pharmacokinetics; settings: human, in vivo, po, 30 mg, 30 mg oral once daily, Phase I; read-out: Mean Day 1 Cmax
property.label: Cmax

Exercise: Requested read-out: Cmax. Entry: O=C1CC[C@H](N2Cc3cc(N4CCN(CC5CCN(c6ccc([C@@H]7c8ccc(O)cc8CC[C@@H]7c7ccccc7)cc6)CC5)CC4)ccc3C2=O)C(=O)N1 [Compound (I-c)]
Solution: 109 ng/mL

----------
Task for the reader: assign each of the following compounds its reported pEC50.
tested on: T47D ESR1 Y537S cells; experiment: Live-cell imaging growth studies and EC50 for growth inhibition, T47D ESR1 Y537S; assay type: cell-based; details: Homo sapiens, read-out: Approximate Half-maximal Effective Concentration (EC50) for growth inhibition
To interpret pEC50, take it as minus log10 of a concentration measured in moles per litre.

Exercise: Requested read-out: pEC50. Entry: `O=C1CC[C@H](N2Cc3cc(N4CCN(CC5CCN(c6ccc([C@@H]7c8ccc(O)cc8CC[C@@H]7c7ccccc7)cc6)CC5)CC4)ccc3C2=O)C(=O)N1`
Solution: 7.30

Exercise: Requested read-out: pEC50. Entry: CO[C@H]1C[C@@H]2CC[C@@H](C)[C@@](O)(O2)C(=O)C(=O)N2CCCC[C@H]2C(=O)O[C@H]([C@H](C)C[C@@H]2CC[C@@H](OCCO)[C@H](OC)C2)CC(=O)[C@H](C)/C=C(\C)[C@@H](O)[C@@H](OC)C(=O)[C@H](C)C[C@H](C)/C=C/C=C/C=C/1C [Everolimus, reference compound]
Solution: 8.00

----------
test: Phase I clinical trial pharmacokinetics; conditions: human, in vivo, po, 30 mg, 30 mg oral once daily, Phase I; read-out: Mean Day 1 AUCTAU
property.label: AUC (ng·h/mL)
Give just the number in ng·h/mL; leave the unit off.

Exercise: Requested read-out: AUC. Entry: O=C1CC[C@H](N2Cc3cc(N4CCN(CC5CCN(c6ccc([C@@H]7c8ccc(O)cc8CC[C@@H]7c7ccccc7)cc6)CC5)CC4)ccc3C2=O)C(=O)N1 [Compound (I-c)]
Solution: 1690

----------
test: Preclinical pharmacokinetics, oral once daily; settings: in vivo; 30 mg/kg oral, single dose; total drug concentrations; read-out: Mean AUC0-24
property.label: AUC(0-t) (ng·h/mL)
Give just the number in ng·h/mL; leave the unit off.

Exercise: Requested read-out: AUC(0-t). Entry: `O=C1CC[C@H](N2Cc3cc(N4CCN(CC5CCN(c6ccc([C@@H]7c8ccc(O)cc8CC[C@@H]7c7ccccc7)cc6)CC5)CC4)ccc3C2=O)C(=O)N1`
Solution: 5720

----------
Assay: Preclinical pharmacokinetics, oral once daily
Conditions: in vivo; 10 mg/kg oral once daily; total drug concentrations
Excerpt: The pharmacokinetic results are shown below in Table 1.
property.label: Cmax (ng/mL)
Give just the number in ng/mL; leave the unit off.

Exercise: Requested read-out: Cmax. Entry: `O=C1CC[C@H](N2Cc3cc(N4CCN(CC5CCN(c6ccc([C@@H]7c8ccc(O)cc8CC[C@@H]7c7ccccc7)cc6)CC5)CC4)ccc3C2=O)C(=O)N1`
Solution: 312

----------
assay: Preclinical pharmacokinetics, oral once daily; settings: in vivo; 3 mg/kg oral once daily; total drug concentrations
property.label: Cmax (ng/mL)
Give just the number in ng/mL; leave the unit off.

Exercise: Requested read-out: Cmax. Entry: `O=C1CC[C@H](N2Cc3cc(N4CCN(CC5CCN(c6ccc([C@@H]7c8ccc(O)cc8CC[C@@H]7c7ccccc7)cc6)CC5)CC4)ccc3C2=O)C(=O)N1`
Solution: 84

----------
assay: Preclinical pharmacokinetics, oral once daily; conditions: in vivo; 10 mg/kg oral once daily; total drug concentrations; read-out: Mean AUC0-24
property.label: AUC(0-t) (µg·h/mL)
Give just the number in µg·h/mL; leave the unit off.

Exercise: Requested read-out: AUC(0-t). Entry: `O=C1CC[C@H](N2Cc3cc(N4CCN(CC5CCN(c6ccc([C@@H]7c8ccc(O)cc8CC[C@@H]7c7ccccc7)cc6)CC5)CC4)ccc3C2=O)C(=O)N1`
Solution: 2.54
